Reference source: paper PMC11862924

ASSAY COMMENT: MTT cytotoxicity assay, JAR
Type: cell-based
CONDITIONS USED: human, JAR cells, triplicates, read-out: Cytotoxicity against cancer cells (IC50), JAR
Give IC50 at 72 h for every item shown.

Answered examples (3):
>>> reported("CCc1ccc(O)c(C(=O)c2cnn(-c3ccc(C(=O)O)cc3)c2)c1 [CK-65]")
"> 50 µM"
>>> reported("Cc1ccc(O)c(C(=O)c2cnn(-c3ccc(C(=O)O)cc3)c2)c1 [CK-54]")
"> 50 µM"
>>> reported("Cc1ccc(-n2cc(C(=O)c3ccccc3O)cn2)cc1 [CK-51]")
"32.9 µM"

Hi, could you look up IC50 at 72 h for each item in my list?
1. O=C(O)c1ccc(-n2cc(C(=O)c3ccc(F)cc3O)cn2)cc1 [CK-89]
2. O=C(O)c1cccc(-n2cc(C(=O)c3ccccc3O)cn2)c1 [CK-23]

Return:
["> 50 µM", "45 µM"]

* * *

ASSAY COMMENT: Apoptosis assay (Annexin V/PI flow cytometry)
Assay type: cell-based, human
CONDITIONS USED: human; K562 cells, 50 μM; read-out: Q3: viable
PARAMETER: viability at 24 h, 50 µM

# viability at 24 h, 50 µM (molecule: `O=C(O)c1ccc(-n2cc(C(=O)c3c(O)ccc4ccccc34)cn2)cc1` ) is 65.1%

* * *

SYSTEM UNDER TEST: YTHDF2 (residues 383–553) (Homo sapiens, UniProt Q9Y5A9)
Construct: A YTHDF2 YTH domain construct (residues 383–553) was subcloned to a pOPIN plasmid; made in house; host or cells: Escherichia coli BL21(DE3)
ASSAY COMMENT: Fluorescence polarization (FP) assay, YTHDF2–m6A RNA interaction
Type: binding
CONDITIONS USED: 100 μM compound; YTHDF2 (residues 383–553, 20 nM), FAM-labeled m6A RNA probe 5 nM; average ± SD
PARAMETER: inhibition at 100 µM (%)
Give bare numbers, in %.

# example entries with known answers
>>> reported("COc1cccc(O)c1C(=O)c1cnn(-c2ccc(C(=O)O)cc2)c1")
64.7
>>> reported("NS(=O)(=O)c1ccc(-n2cc(C(=O)c3ccccc3O)cn2)cc1")
1.7
>>> reported("CS(=O)(=O)c1ccc(-n2cc(C(=O)c3ccccc3O)cn2)cc1")
24.3
>>> reported("O=C(O)c1ccc(-n2cc(C(=O)c3ccccc3O)cn2)cc1")
5.2
>>> reported("O=C(O)c1ccc(-n2cc(C(=O)c3ccc(Br)cc3O)cn2)cc1")
17.4

Give me inhibition at 100 µM for each of these compounds, listed below.
1. O=C(O)c1ccc(-n2cc(C(=O)c3cc(Br)ccc3O)cn2)cc1
2. CCc1ccc(O)c(C(=O)c2cnn(-c3ccc(C(=O)O)cc3)c2)c1

Return:
[63.6, 35.4]

* * *

SYSTEM UNDER TEST: YTHDF2 (Homo sapiens, UniProt Q9Y5A9)
Construct: A YTHDF2 YTH domain construct (residues 383–553) was subcloned to a pOPIN plasmid; made in house; host or cells: Escherichia coli BL21(DE3)
Sequence (Q9Y5A9 383-553): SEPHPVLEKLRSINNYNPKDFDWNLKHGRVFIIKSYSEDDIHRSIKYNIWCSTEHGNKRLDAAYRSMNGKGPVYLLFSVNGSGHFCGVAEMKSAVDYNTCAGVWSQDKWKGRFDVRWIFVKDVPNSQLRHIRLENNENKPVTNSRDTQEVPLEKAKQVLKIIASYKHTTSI
ASSAY COMMENT: nanoDSF thermal shift assay
Format: binding
CONDITIONS USED: 10 μM compound
Description: NanoDSF was measured on a NanoTemper instrument (Prometheus NT.48). YTHDF2 protein was used at a concentration of 5 μM and incubated with 50, 25, 10, and 5 μM compound in buffer (100 mM KPi, pH 7.0, 250 mM NaCl, 10% Glycerol) for 50 min, in which 0.1% DMSO was used as the reference. The heat rate was set to 1 °C per minute, measured in a range between 20 and 90 °C.
Answer each item with its documented ΔTm at 10 µM.

For every item below, please supply its ΔTm at 10 µM.
1. CC(C)c1ccc(O)c(C(=O)c2cnn(-c3ccc(C(=O)O)cc3)c2)c1
2. O=C(O)c1ccc(-n2cc(C(=O)c3cc([N+](=O)[O-])ccc3O)cn2)cc1
3. O=C(O)c1ccc(-n2cc(C(=O)c3cc(Cl)ccc3O)cn2)cc1
4. Cc1cc(O)c(C(=O)c2cnn(-c3ccc(C(=O)O)cc3)c2)cc1Cl
5. O=C(O)c1ccc(-n2cc(C(=O)c3ccc(Br)cc3O)cn2)cc1
6. O=C(O)c1ccc(-n2cc(C(=O)c3cc(Cl)cc(Cl)c3O)cn2)cc1

Return:
1: 0.43 °C; 2: 0.5 °C; 3: 1.35 °C; 4: 1.39 °C; 5: 1.42 °C; 6: 1.56 °C
